Conditions: 303.15 K; 101.33 kPa; Liquid; Vibrating tube method
Numbers after ± are expanded uncertainties.
outcome.measure: mass density
Answer format reminder: number followed by unit.

Reference set (9 entries):
CCCCCCCCC[n+]1ccn(C)c1.O=S(=O)([N-]S(=O)(=O)C(F)(F)F)C(F)(F)F 1294.2 ± 5.4 kg/m3
CCCCCCCCn1cc[n+](C)c1.O=S(=O)([N-]S(=O)(=O)C(F)(F)F)C(F)(F)F 1317.5 ± 5.3 kg/m3
CCCCCCCCCCn1cc[n+](C)c1.O=S(=O)([N-]S(=O)(=O)C(F)(F)F)C(F)(F)F 1276 ± 5.1 kg/m3
CCCn1cc[n+](C)c1.O=S(=O)([N-]S(=O)(=O)C(F)(F)F)C(F)(F)F 1470.8 ± 5.9 kg/m3
CCCC[n+]1ccn(C)c1.O=S(=O)([N-]S(=O)(=O)C(F)(F)F)C(F)(F)F 1432.8 ± 5.8 kg/m3
CCCCCCCn1cc[n+](C)c1.O=S(=O)([N-]S(=O)(=O)C(F)(F)F)C(F)(F)F 1340.4 ± 5.4 kg/m3
CCCCCC[n+]1ccn(C)c1.O=S(=O)([N-]S(=O)(=O)C(F)(F)F)C(F)(F)F 1368.9 ± 5.5 kg/m3
CCCCCn1cc[n+](C)c1.O=S(=O)([N-]S(=O)(=O)C(F)(F)F)C(F)(F)F 1398.7 ± 5.6 kg/m3
CCCCCCCCCCCCn1cc[n+](C)c1.O=S(=O)([N-]S(=O)(=O)C(F)(F)F)C(F)(F)F 1240.9 ± 5 kg/m3

Now for another entry.
Query: Entry CCn1cc[n+](C)c1.O=S(=O)([N-]S(=O)(=O)C(F)(F)F)C(F)(F)F has what mass density?
Reply: 1515.1 ± 6.1 kg/m3

----------
Details: 463.15 K; 101.33 kPa; Liquid; Vibrating tube method
outcome.measure: mass density (kg/m3)
Please state the figure in kg/m3; there is no need to write the unit.

CCCCCCCCC[n+]1ccn(C)c1.O=S(=O)([N-]S(=O)(=O)C(F)(F)F)C(F)(F)F 1156.8
CCCCCC[n+]1ccn(C)c1.O=S(=O)([N-]S(=O)(=O)C(F)(F)F)C(F)(F)F 1224.5
CCCCCn1cc[n+](C)c1.O=S(=O)([N-]S(=O)(=O)C(F)(F)F)C(F)(F)F 1251.1
CCCCCCCCn1cc[n+](C)c1.O=S(=O)([N-]S(=O)(=O)C(F)(F)F)C(F)(F)F 1178
CCCC[n+]1ccn(C)c1.O=S(=O)([N-]S(=O)(=O)C(F)(F)F)C(F)(F)F 1282.2

Query: Given CCn1cc[n+](C)c1.O=S(=O)([N-]S(=O)(=O)C(F)(F)F)C(F)(F)F , state its recorded mass density.
Reply: 1356

Query: Given the compound CCCCCCCCCCn1cc[n+](C)c1.O=S(=O)([N-]S(=O)(=O)C(F)(F)F)C(F)(F)F , what is its reported mass density?
Reply: 1140.2

Query: For CCCCCCCCCCCCCCn1cc[n+](C)c1.O=S(=O)([N-]S(=O)(=O)C(F)(F)F)C(F)(F)F , what is its reported mass density?
Reply: 1079.7

Query: May I ask what mass density has been recorded for CCCCCCCn1cc[n+](C)c1.O=S(=O)([N-]S(=O)(=O)C(F)(F)F)C(F)(F)F ?
Reply: 1198.7

Query: Find the recorded mass density belonging to CCCn1cc[n+](C)c1.O=S(=O)([N-]S(=O)(=O)C(F)(F)F)C(F)(F)F and report it.
Reply: 1315.6

----------
Details: 423.15 K; 101.33 kPa; Liquid; Vibrating tube method
outcome.measure: mass density (kg/m3)
Numbers only; they are read as kg/m3.

Query: Any idea what its mass density is? The molecule is CCCCCCCCC[n+]1ccn(C)c1.O=S(=O)([N-]S(=O)(=O)C(F)(F)F)C(F)(F)F
Reply: 1191.8

Query: Dear colleague, I am looking for the recorded mass density of the following molecule: CCn1cc[n+](C)c1.O=S(=O)([N-]S(=O)(=O)C(F)(F)F)C(F)(F)F
Reply: 1397.5

Query: Fill blank: measured mass density of the molecule CCCCCCCCCCn1cc[n+](C)c1.O=S(=O)([N-]S(=O)(=O)C(F)(F)F)C(F)(F)F is ____.
Reply: 1174.8

Query: Quick one: mass density for CCCCCCCCCCCCCCn1cc[n+](C)c1.O=S(=O)([N-]S(=O)(=O)C(F)(F)F)C(F)(F)F ?
Reply: 1112.4

Query: Can you look up the measured mass density of CCCC[n+]1ccn(C)c1.O=S(=O)([N-]S(=O)(=O)C(F)(F)F)C(F)(F)F for me?
Reply: 1321.2

Query: mass density lookup needed for CCCCCC[n+]1ccn(C)c1.O=S(=O)([N-]S(=O)(=O)C(F)(F)F)C(F)(F)F , thanks.
Reply: 1261.6

Query: Which mass density value is on record for CCCCCCCCCCCCn1cc[n+](C)c1.O=S(=O)([N-]S(=O)(=O)C(F)(F)F)C(F)(F)F ?
Reply: 1142

Query: mass density; subject: CCCCCn1cc[n+](C)c1.O=S(=O)([N-]S(=O)(=O)C(F)(F)F)C(F)(F)F
Reply: 1288.6

Query: Name the recorded mass density for CCCCCCCn1cc[n+](C)c1.O=S(=O)([N-]S(=O)(=O)C(F)(F)F)C(F)(F)F .
Reply: 1235

Query: Please report the recorded mass density for CCCn1cc[n+](C)c1.O=S(=O)([N-]S(=O)(=O)C(F)(F)F)C(F)(F)F .
Reply: 1355.8

Query: Using the record for CCCCCCCCn1cc[n+](C)c1.O=S(=O)([N-]S(=O)(=O)C(F)(F)F)C(F)(F)F , report its mass density.
Reply: 1213.5

----------
# mass density values compiled below
Conditions: 333.15 K; 101.33 kPa; Liquid; Vibrating tube method
± gives the expanded uncertainty stated by the source.
Hey, just the number and the unit after it is fine.

CCCC[n+]1ccn(C)c1.O=S(=O)([N-]S(=O)(=O)C(F)(F)F)C(F)(F)F 1404.8 ± 5.6 kg/m3

Query: # get_value(readout='mass density', item= CCCCCCCCCCn1cc[n+](C)c1.O=S(=O)([N-]S(=O)(=O)C(F)(F)F)C(F)(F)F )
Reply: 1250.3 ± 5 kg/m3

Query: Consider the compound CCCCCCCCn1cc[n+](C)c1.O=S(=O)([N-]S(=O)(=O)C(F)(F)F)C(F)(F)F and give its measured mass density.
Reply: 1291.2 ± 5.2 kg/m3

Query: Which mass density reading was recorded for the compound CCCCCCCCCCCCn1cc[n+](C)c1.O=S(=O)([N-]S(=O)(=O)C(F)(F)F)C(F)(F)F ?
Reply: 1215.6 ± 4.9 kg/m3

Query: Can you look up the measured mass density of CCCn1cc[n+](C)c1.O=S(=O)([N-]S(=O)(=O)C(F)(F)F)C(F)(F)F for me?
Reply: 1441.9 ± 5.8 kg/m3

Query: Given CCCCCCCn1cc[n+](C)c1.O=S(=O)([N-]S(=O)(=O)C(F)(F)F)C(F)(F)F , state its recorded mass density.
Reply: 1313.8 ± 5.3 kg/m3

Query: // mass density lookup, key: CCn1cc[n+](C)c1.O=S(=O)([N-]S(=O)(=O)C(F)(F)F)C(F)(F)F
Reply: 1485.8 ± 6 kg/m3

Query: Name the reported mass density value associated with the compound CCCCCCCCC[n+]1ccn(C)c1.O=S(=O)([N-]S(=O)(=O)C(F)(F)F)C(F)(F)F
Reply: 1268.3 ± 5.2 kg/m3

Query: mass density lookup needed for CCCCCC[n+]1ccn(C)c1.O=S(=O)([N-]S(=O)(=O)C(F)(F)F)C(F)(F)F , thanks.
Reply: 1341.8 ± 5.4 kg/m3

Query: // query mass density value for entry CCCCCCCCCCCCCCn1cc[n+](C)c1.O=S(=O)([N-]S(=O)(=O)C(F)(F)F)C(F)(F)F
Reply: 1184.8 ± 4.8 kg/m3

Query: # input compound: CCCCCn1cc[n+](C)c1.O=S(=O)([N-]S(=O)(=O)C(F)(F)F)C(F)(F)F ; wanted: its mass density
Reply: 1371.2 ± 5.5 kg/m3

----------
Details: 363.15 K; 101.33 kPa; Liquid; Vibrating tube method
Reported mass density values follow for various compounds
Output spec: scalar in kg/m3, unitless text.

CCCCCCCCCCCCn1cc[n+](C)c1.O=S(=O)([N-]S(=O)(=O)C(F)(F)F)C(F)(F)F 1190.9
CCCCCCCn1cc[n+](C)c1.O=S(=O)([N-]S(=O)(=O)C(F)(F)F)C(F)(F)F 1287.6
CCn1cc[n+](C)c1.O=S(=O)([N-]S(=O)(=O)C(F)(F)F)C(F)(F)F 1456.7
CCCCCCCCC[n+]1ccn(C)c1.O=S(=O)([N-]S(=O)(=O)C(F)(F)F)C(F)(F)F 1242.8
CCCCCCCCn1cc[n+](C)c1.O=S(=O)([N-]S(=O)(=O)C(F)(F)F)C(F)(F)F 1265.3

Query: Looking for the measured mass density of CCCCCCCCCCCCCCn1cc[n+](C)c1.O=S(=O)([N-]S(=O)(=O)C(F)(F)F)C(F)(F)F , can you help?
Reply: 1160.5

Query: Suppose we examine the compound CCCn1cc[n+](C)c1.O=S(=O)([N-]S(=O)(=O)C(F)(F)F)C(F)(F)F ; what mass density value has been reported?
Reply: 1413.5

Query: Field request: mass density | item: CCCCCCCCCCn1cc[n+](C)c1.O=S(=O)([N-]S(=O)(=O)C(F)(F)F)C(F)(F)F
Reply: 1225.1

Query: Entry under review: CCCCCn1cc[n+](C)c1.O=S(=O)([N-]S(=O)(=O)C(F)(F)F)C(F)(F)F . Reported mass density?
Reply: 1344

Query: So what does the record say about mass density for CCCCCC[n+]1ccn(C)c1.O=S(=O)([N-]S(=O)(=O)C(F)(F)F)C(F)(F)F ?
Reply: 1315.2

Query: Consider the compound shown here: CCCC[n+]1ccn(C)c1.O=S(=O)([N-]S(=O)(=O)C(F)(F)F)C(F)(F)F What is its recorded mass density?
Reply: 1377.1
